# System name: Cannabinoid receptor 1 (Rattus norvegicus)
# Assay: Binding affinity against brain cannabinoid receptor 1 using [3H]CP-55940 as radioligand at 0.25 nM concentration
Hi! Could you tag entries with IC50 below 0.5 µM as Yes, and those at or above as No? Much appreciated.

Answered cases to consult:
{"Smi": "O=C(c1cc(N=C=S)cc2ccccc12)c1cn(CCN2CCOCC2)c2ccccc12", "System name": "Cannabinoid receptor 1 (Rattus norvegicus)", "Answer label": "No"}
{"Smi": "O=C(c1cccc2ccccc12)c1cn(CCN2CCOCC2)c2ccccc12", "System name": "Cannabinoid receptor 1 (Rattus norvegicus)", "Answer label": "Yes"}
{"Smi": "O=C(c1ccc(N=C=S)c2ccccc12)c1cn(CCN2CCOCC2)c2ccccc12", "System name": "Cannabinoid receptor 1 (Rattus norvegicus)", "Answer label": "Yes"}
{"Smi": "O=C(c1cccc2cc(N=C=S)ccc12)c1cn(CCN2CCOCC2)c2ccccc12", "System name": "Cannabinoid receptor 1 (Rattus norvegicus)", "Answer label": "No"}

# next compound below
Prompt: API: query returns whether the compound falls strictly under 0.5 µM in IC50. Query: `O=C(c1cccc2ccccc12)c1cn(CCN2CCOCC2)c2cc(N=C=S)ccc12`
Response: Yes

====

# System name: Cannabinoid receptor 1 (Rattus norvegicus, UniProt P20272)
# Sequence (P20272 whole entry): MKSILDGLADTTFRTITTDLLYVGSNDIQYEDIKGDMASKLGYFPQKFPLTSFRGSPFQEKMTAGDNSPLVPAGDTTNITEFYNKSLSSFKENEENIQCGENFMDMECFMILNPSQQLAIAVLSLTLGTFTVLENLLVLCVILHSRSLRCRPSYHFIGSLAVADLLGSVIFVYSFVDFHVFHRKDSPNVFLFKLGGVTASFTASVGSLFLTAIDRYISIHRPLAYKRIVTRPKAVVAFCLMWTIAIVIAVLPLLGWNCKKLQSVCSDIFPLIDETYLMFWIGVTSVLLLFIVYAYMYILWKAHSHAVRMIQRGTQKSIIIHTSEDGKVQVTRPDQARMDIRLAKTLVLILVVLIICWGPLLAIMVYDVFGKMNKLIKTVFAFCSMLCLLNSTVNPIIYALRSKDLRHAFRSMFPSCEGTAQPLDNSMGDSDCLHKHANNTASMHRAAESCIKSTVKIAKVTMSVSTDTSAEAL
# Assay: Binding affinity against brain Cannabinoid receptor 1 using [3H]CP-55940 as radioligand at 1.1 nM concentration
Measurement label: IC50 (µM)
Report as a plain number; the unit µM is understood.

Prompt: // lookup IC50 for `Cc1c(C(=O)c2ccc(N=C=S)c3ccccc23)c2ccccc2n1CCN1CCOCC1`
Response: 0.69

Reference source: ChEMBL document CHEMBL1129310
